Recorded viability, T/C for the following compounds
- Test system: 777334-354-R2-J4-PDC tumor spheroids with HUVEC/MSC, viability
- procedureText: Anticancer human tumor 777334-354-R2-J4-PDC patient-derived pancreatic adenocarcinoma cell line growth inhibition [GQUAD]
- testSettings: second compound 0.316 µM; first compound 0.00999 µM; stronger effect = lower value
- Source text: DNA G-quadruplex Stabilizer Agents in Combinations in Complex Spheroids A high-throughput screen of multi-cell type tumor spheroids was designed to identify active combinations of DNA G-quadruplex stabilizer agents and targeted small molecules. […] Compounds. […] If the clinical Cmax for an agent had not been determined, the highest concentration tested was 10 microM. […]
API: value field is a number in %; no unit string.

>  <compound>
CC[C@@]1(O)C(=O)OCc2c1cc1n(c2=O)Cc2cc3c(CN(C)C)c(O)ccc3nc2-1 + Cc1cnc(CNC(=O)c2c(=O)c3ccc(N4CCCN(C)CC4)nc3n3c2sc2ccccc23)cn1

>  <unitTag>
%

>  <viability, T/C>
76.7

$$$$
>  <compound>
CCc1c2c(nc3ccc(O)cc13)-c1cc3c(c(=O)n1C2)COC(=O)[C@]3(O)CC + CN(C)c1ccc(Nc2c3ccc(NC(=O)CCN4CCCC4)cc3nc3cc(NC(=O)CCN4CCCC4)ccc23)cc1

>  <unitTag>
%

>  <viability, T/C>
34.6

$$$$

Now look at this entry.
# lookup: viability, T/C of Cn1ncnc1[C@H]1c2n[nH]c(=O)c3cc(F)cc(c23)N[C@@H]1c1ccc(F)cc1 + Cc1[nH]c2ccc(F)cc2c1-c1nc2c3cccnc3c3ncccc3c2[nH]1 95.1

###

- Test system: 777334-354-R2-J4-PDC tumor spheroids with HUVEC/MSC, viability
- procedureText: Anticancer human tumor 777334-354-R2-J4-PDC cell line growth inhibition [GQUAD];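 note: spheroids exposed to compounds for 7 days before readout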
- testSettings: curve of first compound; second compound 1 µM
Item-by-item account of pIC50
Keep it numeric: pIC50 is minus log10 of the concentration in mol/L.

The following compounds have reported results that may help.
>  <compound>
O=C(NO)c1cnc(N2CCN(S(=O)(=O)c3ccc4ccccc4c3)CC2)nc1 + CN(C)c1ccc(Nc2c3ccc(NC(=O)CCN4CCCC4)cc3nc3cc(NC(=O)CCN4CCCC4)ccc23)cc1

>  <pIC50>
6.07

$$$$
>  <compound>
CCCS(=O)(=O)Nc1ccc(F)c(C(=O)c2c[nH]c3ncc(-c4ccc(Cl)cc4)cc23)c1F + CN(C)c1ccc(Nc2c3ccc(NC(=O)CCN4CCCC4)cc3nc3cc(NC(=O)CCN4CCCC4)ccc23)cc1

>  <pIC50>
5.08

$$$$
>  <compound>
Cc1[nH]c2ccccc2c1CCNCc1ccc(/C=C/C(=O)NO)cc1 + Cc1cnc(CNC(=O)c2c(=O)c3ccc(N4CCCN(C)CC4)nc3n3c2sc2ccccc23)cn1

>  <pIC50>
6.94

$$$$
>  <compound>
CCCS(=O)(=O)Nc1ccc(F)c(C(=O)c2c[nH]c3ncc(-c4ccc(Cl)cc4)cc23)c1F + Cc1cnc(CNC(=O)c2c(=O)c3ccc(N4CCCN(C)CC4)nc3n3c2sc2ccccc23)cn1

>  <pIC50>
5.15

$$$$
>  <compound>
CC1COCCN1c1cc(C2(S(C)(=N)=O)CC2)nc(-c2ccnc3[nH]ccc23)n1 (stereo unspecified) + CN(C)c1ccc(Nc2c3ccc(NC(=O)CCN4CCCC4)cc3nc3cc(NC(=O)CCN4CCCC4)ccc23)cc1

>  <pIC50>
5.05

$$$$

# get_value(readout='pIC50', item= CCc1c2c(nc3ccc(O)cc13)-c1cc3c(c(=O)n1C2)COC(=O)[C@]3(O)CC + Cc1[nH]c2ccc(F)cc2c1-c1nc2c3cccnc3c3ncccc3c2[nH]1 ) 8.46

###

Recorded viability, T/C by entry
- System: 777334-354-R2-J4-PDC tumor spheroids with HUVEC/MSC, viability
- procedureText: Anticancer human tumor 777334-354-R2-J4-PDC cell line growth inhibition [GQUAD];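 note: spheroids exposed to compounds for 7 days before readout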
- testSettings: second compound 0.316 µM; first compound 1 µM; stronger effect = lower value

Record request: viability, T/C value, item O=c1[nH]cc(F)c(=O)[nH]1 + Cc1cnc(CNC(=O)c2c(=O)c3ccc(N4CCCN(C)CC4)nc3n3c2sc2ccccc23)cn1 75.8%

Another molecule to check: CCCS(=O)(=O)Nc1ccc(F)c(C(=O)c2c[nH]c3ncc(-c4ccc(Cl)cc4)cc23)c1F + CN(C)c1ccc(Nc2c3ccc(NC(=O)CCN4CCCC4)cc3nc3cc(NC(=O)CCN4CCCC4)ccc23)cc1 117%

Further, for Nc1ccn(C2OC(CO)C(O)C2(F)F)c(=O)n1 (stereo unspecified) + Cc1cnc(CNC(=O)c2c(=O)c3ccc(N4CCCN(C)CC4)nc3n3c2sc2ccccc23)cn1 ? 51.7%

Next up: Cc1cccc(N(C)C(=O)C2C(O)CCN2c2nc(C)cc(C(F)(F)F)c2C#N)c1 (stereo unspecified) + Cc1cnc(CNC(=O)c2c(=O)c3ccc(N4CCCN(C)CC4)nc3n3c2sc2ccccc23)cn1 84.8%

Query C=CC(=O)N1CCN(c2nc(=O)n(-c3c(C)ccnc3C(C)C)c3nc(-c4c(O)cccc4F)c(F)cc23)C(C)C1 (stereo unspecified) + Cc1cnc(CNC(=O)c2c(=O)c3ccc(N4CCCN(C)CC4)nc3n3c2sc2ccccc23)cn1 next 104%

// query: CC(C)(O)C1CCC(Nc2ccc3ncc(-c4cccc(C(F)(F)F)c4)n3n2)CC1 (stereo unspecified) + Cc1[nH]c2ccc(F)cc2c1-c1nc2c3cccnc3c3ncccc3c2[nH]1 51.2%

Another molecule to check: CC(C)(O)C1CCC(Nc2ccc3ncc(-c4cccc(C(F)(F)F)c4)n3n2)CC1 (stereo unspecified) + Cc1cnc(CNC(=O)c2c(=O)c3ccc(N4CCCN(C)CC4)nc3n3c2sc2ccccc23)cn1 46.5%

Another molecule to look at: C=CCn1c(=O)c2cnc(Nc3ccc(N4CCN(C)CC4)cc3)nc2n1-c1cccc(C(C)(C)O)n1 + Cc1[nH]c2ccc(F)cc2c1-c1nc2c3cccnc3c3ncccc3c2[nH]1 38.3%

Same question, O=C(NO)c1cnc(N2CCN(S(=O)(=O)c3ccc4ccccc4c3)CC2)nc1 + Cc1cnc(CNC(=O)c2c(=O)c3ccc(N4CCCN(C)CC4)nc3n3c2sc2ccccc23)cn1 this time 42.7%

###

- System: 777334-354-R2-J4-PDC tumor spheroids with HUVEC/MSC, viability
- procedureText: Anticancer human tumor 777334-354-R2-J4-PDC cell line growth inhibition [GQUAD];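 note: spheroids exposed to compounds for 7 days before readout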
- testSettings: curve of first compound; second compound 1 µM
- Text: DNA G-quadruplex Stabilizer Agents in Combinations in Complex Spheroids A high-throughput screen of multi-cell type tumor spheroids was designed to identify active combinations of DNA G-quadruplex stabilizer agents and targeted small molecules. […] Compounds. […] If the clinical Cmax for an agent had not been determined, the highest concentration tested was 10 microM. […]
Measured pIC50 of individual entries
pIC50 here is simply -log10 of the concentration when that concentration is written in mol/L.

Use these answered entries as a reference point.
>  <molecule>
CCc1c2c(nc3ccc(O)cc13)-c1cc3c(c(=O)n1C2)COC(=O)[C@]3(O)CC + Cc1cnc(CNC(=O)c2c(=O)c3ccc(N4CCCN(C)CC4)nc3n3c2sc2ccccc23)cn1

>  <pIC50>
8.34

$$$$
>  <molecule>
Cc1[nH]c2ccccc2c1CCNCc1ccc(/C=C/C(=O)NO)cc1 + CN(C)c1ccc(Nc2c3ccc(NC(=O)CCN4CCCC4)cc3nc3cc(NC(=O)CCN4CCCC4)ccc23)cc1

>  <pIC50>
6.67

$$$$

Give the reported pIC50 for CC1COCCN1c1cc(-c2ccnn2C)c2ccnc(-c3ccn[nH]3)c2n1 (stereo not given) + CN(C)c1ccc(Nc2c3ccc(NC(=O)CCN4CCCC4)cc3nc3cc(NC(=O)CCN4CCCC4)ccc23)cc1 (system: 777334-354-R2-J4-PDC tumor spheroids with HUVEC/MSC, viability). 6.18

###

- Tested on: 777334-354-R2-J4-PDC tumor spheroids with HUVEC/MSC, viability
- procedureText: Anticancer human tumor 777334-354-R2-J4-PDC cell line growth inhibition [GQUAD];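 note: spheroids exposed to compounds for 7 days before readout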
- testSettings: second compound 1 µM; first compound 10 µM; stronger effect = lower value
Returns: string. Value is TRUE if measured viability, T/C is below 40%, and FALSE if it is greater than or equal to it.

>  <compound>
COc1ncnc(C2CC2)c1-c1ncc2cnn(Cc3ccc(-c4nc(C(F)(F)F)cn4C(C)C)cc3)c2n1 + Cc1cnc(CNC(=O)c2c(=O)c3ccc(N4CCCN(C)CC4)nc3n3c2sc2ccccc23)cn1

>  <cat>
FALSE

$$$$

Identify whether the compound CC1COCCN1c1cc(C2(S(C)(=N)=O)CC2)nc(-c2ccnc3[nH]ccc23)n1 (stereo not drawn) + CN(C)c1ccc(Nc2c3ccc(NC(=O)CCN4CCCC4)cc3nc3cc(NC(=O)CCN4CCCC4)ccc23)cc1 records viability, T/C below 40%. FALSE

CC1COCCN1c1cc(C2(O)CC3CCC(C2)O3)c2cnn(-c3ccn[nH]3)c2n1 (stereo not drawn) + CN(C)c1ccc(Nc2c3ccc(NC(=O)CCN4CCCC4)cc3nc3cc(NC(=O)CCN4CCCC4)ccc23)cc1 , same question. TRUE

Then this compound: Nc1ccn(C2OC(CO)C(O)C2(F)F)c(=O)n1 (stereo not drawn) + Cc1cnc(CNC(=O)c2c(=O)c3ccc(N4CCCN(C)CC4)nc3n3c2sc2ccccc23)cn1 TRUE

// next record C=CCn1c(=O)c2cnc(Nc3ccc(N4CCN(C)CC4)cc3)nc2n1-c1cccc(C(C)(C)O)n1 + CN(C)c1ccc(Nc2c3ccc(NC(=O)CCN4CCCC4)cc3nc3cc(NC(=O)CCN4CCCC4)ccc23)cc1 TRUE

Here is the next compound: CC(C)n1c(=O)n(C)c2cnc3cc(F)c(-c4ccc(OCCCN5CCCCC5)nc4)cc3c21 + Cc1cnc(CNC(=O)c2c(=O)c3ccc(N4CCCN(C)CC4)nc3n3c2sc2ccccc23)cn1 FALSE

# iterate: CC(C)n1c(=O)n(C)c2cnc3cc(F)c(-c4ccc(OCCCN5CCCCC5)nc4)cc3c21 + Cc1[nH]c2ccc(F)cc2c1-c1nc2c3cccnc3c3ncccc3c2[nH]1 FALSE

Input O=c1[nH]cc(F)c(=O)[nH]1 + Cc1[nH]c2ccc(F)cc2c1-c1nc2c3cccnc3c3ncccc3c2[nH]1 FALSE
